biological target: SARS-CoV-2 spike S1 protein (SARS-CoV-2, UniProt P0DTC2 16-685)
pKd: −log10 of the molar value.
property name: pKd

# binder, property name, measurement
records = [
    ("AB-009620 (antibody, V domains shown) VH: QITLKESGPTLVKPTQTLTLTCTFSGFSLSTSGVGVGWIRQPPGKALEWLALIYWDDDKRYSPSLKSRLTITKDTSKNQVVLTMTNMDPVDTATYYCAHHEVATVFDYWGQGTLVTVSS VL: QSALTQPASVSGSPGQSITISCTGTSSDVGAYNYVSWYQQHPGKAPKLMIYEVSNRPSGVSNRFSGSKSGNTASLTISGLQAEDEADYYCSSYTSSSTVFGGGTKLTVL", "pKd", 7.56),
    ("AB-009281 (antibody, V domains shown) VH: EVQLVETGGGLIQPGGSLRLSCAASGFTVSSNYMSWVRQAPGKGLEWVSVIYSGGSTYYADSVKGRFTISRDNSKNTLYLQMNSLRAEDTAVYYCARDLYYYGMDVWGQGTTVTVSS VL: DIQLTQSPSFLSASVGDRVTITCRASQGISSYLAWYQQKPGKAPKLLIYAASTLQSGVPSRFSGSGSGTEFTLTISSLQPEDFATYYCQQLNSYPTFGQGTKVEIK", "pKd", 7.78),
    ("AB-009769 (antibody, V domains shown) VH: EVQLVESGGGLVQPGGSLRLSCAASGFTFSSYWMSWVRQAPGKGLEWVANIKQDGSEKYYVDSVKGRFTISRDNAKNSLYLQMNSLRAEDTAVYYCARSPEVLWFGDPVLDNWFDPWGQGTLVTVSS VL: SYELTQPPSVSVSPGQTARITCSGDALPKQYAYWYQQKPGQAPVLVIYKDSERPSGIPERFSGSSSGTTVTLTISGVQAEDEADYYCQSADSSGTYPVVFGGGTKLTVL", "pKd", 6.98),
    ("AB-009346 (antibody, V domains shown) VH: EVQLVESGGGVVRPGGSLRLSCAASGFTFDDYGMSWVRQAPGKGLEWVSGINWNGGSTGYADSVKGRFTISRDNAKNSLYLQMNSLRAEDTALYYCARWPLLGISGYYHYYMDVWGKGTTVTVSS VL: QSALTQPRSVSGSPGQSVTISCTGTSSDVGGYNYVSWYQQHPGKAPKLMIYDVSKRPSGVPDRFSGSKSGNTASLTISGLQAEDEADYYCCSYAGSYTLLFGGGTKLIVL", "pKd", 7.90),
    ("AB-009271 (antibody, V domains shown) VH: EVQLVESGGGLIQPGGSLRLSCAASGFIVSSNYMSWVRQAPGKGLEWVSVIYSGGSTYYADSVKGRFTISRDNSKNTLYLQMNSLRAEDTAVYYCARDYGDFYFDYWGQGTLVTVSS VL: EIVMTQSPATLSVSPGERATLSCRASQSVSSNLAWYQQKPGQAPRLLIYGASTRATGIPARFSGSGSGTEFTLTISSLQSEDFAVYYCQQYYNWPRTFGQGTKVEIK", "pKd", 7.26),
]
